# credit: patent US9085576B2

# Study System: Cathepsin D (Cat D) (Homo sapiens (Human), UniProt P07339)
# Sequence (P07339 65-412, species assumed): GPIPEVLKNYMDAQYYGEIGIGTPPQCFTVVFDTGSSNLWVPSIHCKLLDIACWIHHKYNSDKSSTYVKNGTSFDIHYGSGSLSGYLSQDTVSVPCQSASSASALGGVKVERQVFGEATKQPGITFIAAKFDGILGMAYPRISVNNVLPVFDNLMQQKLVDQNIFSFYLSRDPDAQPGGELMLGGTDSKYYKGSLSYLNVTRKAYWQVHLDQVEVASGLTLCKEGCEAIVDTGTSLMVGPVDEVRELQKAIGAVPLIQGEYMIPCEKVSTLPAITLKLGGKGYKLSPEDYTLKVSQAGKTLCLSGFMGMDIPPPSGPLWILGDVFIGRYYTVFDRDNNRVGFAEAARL
# Assay Summary: In vitro enzymatic Cathepsin D (Cat D) FRET assay
# Format: biochemical
# Measurement Parameters: read-out: CatD IC50
Mark TRUE for IC50 under 800 µM, FALSE if at or over.

## Input Check if IC50 falls below 800 µM for N#Cc1cnc(C(=O)Nc2ccc(F)c([C@@]3(C(F)F)N=C(N)O[C@@H]4C[C@@H]43)c2)c(Cl)c1 [Example 66] .
## Output FALSE

## Input Check if IC50 falls below 800 µM for C#CCOc1cnc(C(=O)Nc2cc(F)c(F)c([C@@]3(C(F)F)N=C(N)O[C@@H]4C[C@@H]43)c2)cn1 [Example 111] .
## Output FALSE

## Input Check if IC50 falls below 800 µM for NC1=N[C@@](c2cc(NC(=O)c3ccc(Cl)cn3)ccc2Cl)(C(F)F)[C@H]2C[C@H]2O1 [Example 99] .
## Output FALSE

## Input Check if IC50 falls below 800 µM for N#Cc1cnc(C(=O)Nc2ccc(F)c([C@@]3(C(F)F)N=C(N)O[C@@H]4C[C@@H]43)c2)c(CO)c1 [Example 396] .
## Output TRUE

## Input Check if IC50 falls below 800 µM for Cc1cc(OCC(F)(F)F)cnc1C(=O)Nc1ccc(F)c([C@@]2(C(F)F)N=C(N)O[C@@H]3C[C@@H]32)c1 [Example 189] .
## Output TRUE

## Input Check if IC50 falls below 800 µM for Cc1nc(OCC(F)(F)F)cnc1C(=O)Nc1cc(F)c(Cl)c([C@@]2(CF)N=C(N)O[C@@H]3C[C@@H]32)c1 [Example 315] .
## Output TRUE
